Tested on: Saccharomyces cerevisiae;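 further: PSI per variant is the weighted mean of its sequencing read distribution over the sorted stability bins, counting only variants with over 10 reads summed across bins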
Experiment: protein stability index of tFT-peptide fusion in deletion strain of DOA10 (PSI (0-1 scale)); higher = more stable (slower turnover)
readout_label: protein stability index

// returns reported protein stability index for input `GLYMCSNGCWFR`
0.703

// returns reported protein stability index for input `AITLPQCPLLLR`
0.661

// returns reported protein stability index for input `RSLRVLLPLYFRH`
0.616

// returns reported protein stability index for input `RVTRLDAIYFRP`
0.697

// returns reported protein stability index for input `RVQRLDAIYFRI`
0.666

// returns reported protein stability index for input `RVTRLDWIYFRI`
0.495

// returns reported protein stability index for input `RVLRVLLPLYFR`
0.634

// returns reported protein stability index for input `RVTRLDAIYFCI`
0.435

// returns reported protein stability index for input `RLTRLDAIYFRI`
0.663

// returns reported protein stability index for input `SSLRVLLPLYFR`
0.679

// returns reported protein stability index for input `RVTRIDAIYFRI`
0.693

// returns reported protein stability index for input `RSLRVLLPGYFR`
0.673

// returns reported protein stability index for input `RSLRVLLPLYFRV`
0.441

// returns reported protein stability index for input `CSLRVLLPLYFR`
0.622

// returns reported protein stability index for input `AITLPMCPLLLN`
0.189

// returns reported protein stability index for input `RVTRLDIIYFRI`
0.645

// returns reported protein stability index for input `RSLRVLLPLYFRQ`
0.606

// returns reported protein stability index for input `RRLRVLLPLYFR`
0.668

// returns reported protein stability index for input `AIFLPMCPLLLR`
0.631

// returns reported protein stability index for input `RSLRVLLPDYFR`
0.672

// returns reported protein stability index for input `GLYMCSVLCWFR`
0.369

// returns reported protein stability index for input `GLYMCCVGCWFR`
0.504

// returns reported protein stability index for input `GDYMCSVGCWFR`
0.692

// returns reported protein stability index for input `AIHLPMCPLLLR`
0.65

// returns reported protein stability index for input `SITLPMCPLLLR`
0.65

// returns reported protein stability index for input `RSLRVLLPLYPR`
0.69

// returns reported protein stability index for input `RSLRVSLPLYFR`
0.687

// returns reported protein stability index for input `AITGPMCPLLLR`
0.666

// returns reported protein stability index for input `RVTRLDAINFRI`
0.729

// returns reported protein stability index for input `RSPRVLLPLYFR`
0.681

// returns reported protein stability index for input `AITSPMCPLLLR`
0.672

// returns reported protein stability index for input `QLVSLPILLFFR`
0.647
